target: Dihydroorotate dehydrogenase (quinone), mitochondrial (Homo sapiens); test: Inhibition of C-terminal His6-tagged recombinant human DHODH (29 to 395 residues) N-terminally truncated soluble domain extracted from Escherichia coli phage resistant BL21-DE3 using CoQD/DHA/DCIP as substrates
Sequence (Q02127 whole entry, the tested form may be a part): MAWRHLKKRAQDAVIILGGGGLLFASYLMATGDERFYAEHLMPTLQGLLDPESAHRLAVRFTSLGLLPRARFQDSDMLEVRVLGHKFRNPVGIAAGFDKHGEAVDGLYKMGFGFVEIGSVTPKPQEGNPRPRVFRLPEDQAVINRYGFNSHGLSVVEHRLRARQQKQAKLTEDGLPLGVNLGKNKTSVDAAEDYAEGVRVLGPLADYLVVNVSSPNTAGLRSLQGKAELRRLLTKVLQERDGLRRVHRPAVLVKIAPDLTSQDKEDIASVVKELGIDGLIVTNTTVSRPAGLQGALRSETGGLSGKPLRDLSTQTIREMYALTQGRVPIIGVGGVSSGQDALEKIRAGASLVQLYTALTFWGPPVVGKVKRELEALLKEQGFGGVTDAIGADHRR
pIC50: −log10 of the molar value.
Please provide measured pIC50 for the entries that follow.

The examples below pair each entry with its known result.
- chemical-string: "CC[C@@](O)(c1ccc(C(F)(F)F)nc1)c1c2ccn(C3CC3)c(=O)c2nn1C"
  pIC50: 5.30
- chemical-string: "Cn1nc2c(=O)n(C3CC3)cnc2c1[C@](O)(c1cnc(C(F)(F)F)c(Cl)c1)C(F)(F)F"
  pIC50: "< 4.52"
- chemical-string: "Cn1nc2c(=O)n(C3CC3)ccc2c1[C@](O)(c1ccc(C(F)(F)F)c(Cl)c1)C(F)(F)F"
  pIC50: 5.37
- chemical-string: "Cc1cn(C2CC2)c(=O)c2nn(C)c(Cc3ccc(C(F)(F)F)nc3)c12"
  pIC50: 4.28

// input: 2 compounds below; output: pIC50 for each
1. CCn1cc(C)c2c([C@H](O)c3ccc(C(F)(F)F)nc3)n(C)nc2c1=O
2. CCn1cc(C2CC2)c2c(Cc3ccc(C(F)(F)F)c(F)c3)n(C)nc2c1=O

< 4.00
4.85

* * *

target: Dihydroorotate dehydrogenase (quinone), mitochondrial (Homo sapiens); assay: Inhibition of C-terminal His6-tagged recombinant human DHODH (29 to 395 residues) N-terminally truncated soluble domain extracted from Escherichia coli phage resistant BL21-DE3 using CoQD/DHA/DCIP as substrates
Please provide measured pIC50 for the entries that follow.
Give bare numbers, as −log10 of the molar value.

- chemical-string: "Cn1nc2c(=O)n(C3CC3)ncc2c1[C@](O)(c1ccc(C(F)(F)F)c(Cl)c1)C(F)(F)F"
  test-system: "Dihydroorotate dehydrogenase (quinone), mitochondrial (Homo sapiens)"
  reported-measurement: 4.66
- chemical-string: "CCn1cc(Cl)c2c(Cc3ccc(C(F)(F)F)nc3)n(C)nc2c1=O"
  test-system: "Dihydroorotate dehydrogenase (quinone), mitochondrial (Homo sapiens)"
  reported-measurement: 4.14

Let us move to another entry and its pIC50.
Give Dihydroorotate dehydrogenase (quinone), mitochondrial (Homo sapiens) pIC50 for CCn1cc(C2CC2)c2c(Cc3cnc(C(F)(F)F)c(Cl)c3)n(C)nc2c1=O 4.22

* * *

assay: Metabolic stability in human liver microsomes assessed as intrinsic clearance at 0.5 uM incubated for 60 mins in presence of NADPH by tandem quadrupole-Time of Flight MS; assay type: ADME, Microsome; details: 1 h
measurement-label: intrinsic clearance (CLint) (µL/min/mg)
Numbers only, in µL/min/mg.

The examples below pair each entry with its known result.
- chemical-string: "CC[C@@](O)(c1cc(F)c(F)c(F)c1)c1c2ccn(C3CC3)c(=O)c2nn1C"
  intrinsic clearance (CLint) (µL/min/mg): 6
- chemical-string: "CCn1cc(Cl)c2c(Cc3ccc(N4CCOCC4)nc3)n(C)nc2c1=O"
  intrinsic clearance (CLint) (µL/min/mg): 15
- chemical-string: "Cn1nc2c(=O)n(C3CC3)ncc2c1[C@](O)(c1cnc(C(F)(F)F)c(Cl)c1)C1CC1"
  intrinsic clearance (CLint) (µL/min/mg): 5.4

Let us move to another entry and its intrinsic clearance (CLint).
Which intrinsic clearance (CLint) value belongs to CCn1cc(C2CC2)c2c(CN3CCC4(CCC4)CC3)n(C)nc2c1=O ? 130

* * *

Please provide measured F for the entries that follow.
assay: Oral bioavailability in overnight-fasted male Sprague-Dawley rat at 3 mg/kg measured upto 72 hrs by LCMS analysis; assay type: ADME, organism-based; details: in vivo

The examples below pair each entry with its known result.
- chemical-string: "Cn1nc2c(=O)n(C3CC3)cnc2c1[C@](O)(c1cnc(C(F)(F)F)c(Cl)c1)C(F)(F)F"
  F: "> 89%"
- chemical-string: "Cn1nc2c(=O)n(C3CC3)ncc2c1[C@](O)(c1cnc(C(F)(F)F)c(Cl)c1)C(F)(F)F"
  F: "> 100%"

Let us move to another entry and its F.
Which F value belongs to Cn1nc2c(=O)n(C3CC3)ccc2c1[C@](O)(c1cnc(C(F)(F)F)c(Cl)c1)C(F)(F)F ? > 63%

* * *

test: Kinetic solubility of compound at pH 6.5 measured after 30 mins by nephelometry; assay type: physicochemical; details: buffer, pH 6.5, read-out: Kinetic_solubility
Please provide measured solubility kinetic at 0.5 h for the entries that follow.
One number for each entry, in µM.

- chemical-string: "CCn1cc(C2CC2)c2c(Cc3cnc(C(F)(F)F)c(C)c3)n(C)nc2c1=O"
  solubility kinetic at 0.5 h (µM): 50
- chemical-string: "Cn1nc2c(=O)n(C3CC3)ccc2c1[C@](O)(c1ccc(C(F)(F)F)nc1)C(F)(F)F"
  solubility kinetic at 0.5 h (µM): 50

Let us move to another entry and its solubility kinetic at 0.5 h.
Which solubility kinetic at 0.5 h value belongs to CC[C@@](O)(c1cc(F)c(F)c(F)c1)c1c2ccn(C3CC3)c(=O)c2nn1C ? 50

* * *

Please provide measured IC50 for the entries that follow.
Target: Dihydroorotate dehydrogenase (quinone), mitochondrial (Plasmodium falciparum (isolate 3D7), UniProt Q08210)
Sequence (Q08210 whole entry): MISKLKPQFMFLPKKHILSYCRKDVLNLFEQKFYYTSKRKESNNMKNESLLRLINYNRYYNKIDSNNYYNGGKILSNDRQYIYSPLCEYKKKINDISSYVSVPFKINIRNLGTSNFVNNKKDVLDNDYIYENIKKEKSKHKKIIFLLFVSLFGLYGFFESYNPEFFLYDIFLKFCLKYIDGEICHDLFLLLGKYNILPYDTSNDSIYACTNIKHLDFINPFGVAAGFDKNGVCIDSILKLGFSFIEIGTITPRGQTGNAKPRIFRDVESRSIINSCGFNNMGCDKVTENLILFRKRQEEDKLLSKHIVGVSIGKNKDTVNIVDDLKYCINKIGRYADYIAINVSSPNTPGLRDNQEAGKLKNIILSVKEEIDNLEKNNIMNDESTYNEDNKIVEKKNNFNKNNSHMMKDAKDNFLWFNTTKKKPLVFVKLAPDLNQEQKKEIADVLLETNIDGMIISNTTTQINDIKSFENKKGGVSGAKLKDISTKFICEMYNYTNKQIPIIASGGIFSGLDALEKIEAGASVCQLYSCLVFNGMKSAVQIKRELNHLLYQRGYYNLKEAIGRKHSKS
Test: Inhibition of N-terminal His6-tagged recombinant Plasmodium falciparum DHODH (158 to 569 residues) N-terminally truncated soluble domain extracted from Escherichia coli phage resistant BL21-DE3 using CoQD/DHA/DCIP as substrates

// input: 8 compounds below; output: IC50 for each
1. CCn1ccc2c([C@@](O)(CC)c3cnc(C(F)(F)F)c(Cl)c3)n(C)nc2c1=O
2. CCn1cc(C2CC2)c2c(CN3CCC(F)(F)C(C)(C)C3)n(C)nc2c1=O
3. CCn1cc(C)c2c([C@@H](O)c3ccc(C(F)(F)F)nc3)n(C)nc2c1=O
4. CCn1cc(C)c2c([C@H](N)c3ccc(C(F)(F)F)nc3)n(C)nc2c1=O
5. Cn1nc2c(=O)n(C3CC3)ncc2c1[C@](O)(c1ccc(C(F)(F)F)c(Cl)c1)C(F)(F)F
6. Cc1cn(C2CC2)c(=O)c2nn(C)c(Cc3ccc(C(F)(F)F)nc3)c12
7. CC[C@@](N)(c1ccc(C(F)(F)F)c(Cl)c1)c1c2ncn(C3CC3)c(=O)c2nn1C
8. Cn1nc2c(=O)n(C3CC3)cnc2c1[C@](O)(c1ccc(C(F)(F)F)c(C#N)c1)C(F)(F)F

1. 27 nM
2. 21 nM
3. 280 nM
4. 280 nM
5. 9 nM
6. 89 nM
7. 9 nM
8. 14 nM

* * *

Please provide measured pIC50 for the entries that follow.
molecular target: Dihydroorotate dehydrogenase (quinone), mitochondrial (Homo sapiens); experiment: Inhibition of C-terminal His6-tagged recombinant human DHODH (29 to 395 residues) N-terminally truncated soluble domain extracted from Escherichia coli phage resistant BL21-DE3 using CoQD/DHA/DCIP as substrates
pIC50: −log10 of the molar value.

The examples below pair each entry with its known result.
- chemical-string: "CCn1ccc2c([C@](O)(c3cnc(C(F)(F)F)c(Cl)c3)C3CC3)n(C)nc2c1=O"
  test-system: "Dihydroorotate dehydrogenase (quinone), mitochondrial (Homo sapiens)"
  pIC50: "< 4.00"
- chemical-string: "Cn1nc2c(=O)n(C3CC3)ccc2c1Cc1ccc(C(F)(F)F)c(C#N)c1"
  test-system: "Dihydroorotate dehydrogenase (quinone), mitochondrial (Homo sapiens)"
  pIC50: "< 4.00"
- chemical-string: "CCOC(=O)c1nn(C)c(Cc2ccc(C(F)(F)F)nc2)c1C"
  test-system: "Dihydroorotate dehydrogenase (quinone), mitochondrial (Homo sapiens)"
  pIC50: "< 4.00"

// input: 5 molecules below; output: pIC50 for each
1. Cn1nc2c(=O)n(C3CC3)cc(C3CC3)c2c1Cc1ccc(C(F)(F)F)nc1
2. Cn1nc2c(=O)n(C3CC3)ccc2c1[C@](C)(O)c1cnc(C(F)(F)F)c(Cl)c1
3. CC[C@@](N)(c1cnc(C(F)(F)F)c(Cl)c1)c1c2ncn(C3CC3)c(=O)c2nn1C
4. CCn1cc(C)c2c(Cc3ccc(C(F)(F)F)nc3)n(C)nc2c1=O
5. Cn1nc2c(=O)n(C3CC3)ccc2c1[C@](O)(c1ccc(F)c(Cl)c1)C(F)(F)F

1. 4.77
2. < 4.52
3. < 4.52
4. < 4.00
5. 5.07

// input: 5 molecules below; output: pIC50 for each
1. Cn1nc2c(=O)n(C3CC3)ncc2c1[C@](O)(c1cnc(C(F)(F)F)c(Cl)c1)C(F)(F)F
2. CCn1cc(C2CC2)c2c([C@H](O)c3cnc(C(F)(F)F)c(Cl)c3)n(C)nc2c1=O
3. CC[C@@](O)(c1cc(F)c(F)c(F)c1)c1c2ccn(C3CC3)c(=O)c2nn1C
4. Cn1nc2c(=O)n(C3CC3)ncc2c1[C@](O)(c1ccc(C(F)(F)F)c(C#N)c1)C(F)(F)F
5. CCn1cc(C2CC2)c2c([C@H](N)c3ccc(C(F)(F)F)nc3)n(C)nc2c1=O

["< 4.52", "< 4.00", 5.68, "< 4.52", "< 4.00"]
